binders and their reported ELISA signal at phage dilution factor 3
target: T1, TRBV5-1 antigenic peptide No. 1 (TQTPRYLIKTRGQQ), biotinylated (Homo sapiens, also: biotinylated (site not given here)); assay: ELISA; confirmatory monoclonal phage ELISA; antigens peptide alone, peptide-BSA, peptide-biotin; controls PBS, 10% BSA-PBS, PBS-streptavidin; phage dilution factors 1, 3, 9; conditions: one partner purified
T1 construct: short form of antigenic peptide No. 1 of the TRBV5-1 segment of the human TCR beta chain; probably held on streptavidin, since its control is PBS-streptavidin (surmise); also called Ag3; peptide-biotin; source: synthetic peptide (Proteogenix)
T1 chain: TQTPRYLIKTRGQQ
Ends that are not written are not given here.
READOUT: ELISA signal at phage dilution factor 3

- BINDER: "scFv clone A5 (scFv, V domains shown, as printed identical to the VH of A2; tested as phage clone in the confirmatory monoclonal ELISA; source: phage display clone from the human naive scFv library LiAb-SFMAX (Proteogenix), amplified in E. coli TG1) VH: QVQLQQSGPGLVKPSQTLSLTCAISGDSVSSNSAAWNWIRQSPSRGLEWLGRTYYRSKWYNDYAVSVKSRITINPDTSKNQFSLQLNSVTPEDTAVYYCARDQAAAEVYFDYWGQGTLVTVSS VL: NFMLTQPHSVSESPGKTVTISCTRSSGSIASNYVQWYQQRPGSSPTTVIYEDNQRPSGVPDRFSGSIDSSSNSASLTISGLKTEDEADYYCQSYDSSNHWVFGGGTKVTVL"
  DATA_VALUE: 2.53
- BINDER: "scFv clone A12 (scFv, V domains shown, tested as phage clone in the confirmatory monoclonal ELISA; lead scFv from which the r-hIgG1 mAb was made; also called lead scFv; source: phage display clone from the human naive scFv library LiAb-SFMAX (Proteogenix), amplified in …) VH: QVQLQQWGAGLLKPSETLSLTCAVYGGSFSGYYWSWIRQPPGKGLEWIGEINHSGSTNYNPSLKSRVTISVDTSKNQFSLKLSSVTAADTAVYYCARWDLDYWGQGTLVTVSS VL: EIVLTQSPLSLPVTLGQSASISCRSSQSLVHSDGNTYLNWFQQRPGQSPRRLIYQVSKRDSGVPDRFSGSGSGTDFTLRISRVEAEDVGFYYCMQGTHWPPITFGQGTRLEIK"
  DATA_VALUE: 1.99
- BINDER: "scFv clone A8 (scFv, V domains shown, tested as phage clone in the confirmatory monoclonal ELISA; source: phage display clone from the human naive scFv library LiAb-SFMAX (Proteogenix), amplified in E. coli TG1) VH: QVQLVQSGPEMKKAGASVRVSCKGSGYTFSSFDINWVRQVPGQGLEWMGWMNPDTGNTGLAQKFQGRVTMTRDTSIRTAYMELRSLRSDDTAVYYCARDAPRNGRGMDVWGQGTMVTVSS VL: SYELTQPPSVSVSPGQTARITCSGDALPKQYAYWYQQKPGQAPVLVIYQDTKRPSGIPERFSGSSSGTTVTLTISGVQAEDEADYYCQSADSSGTYPVFGGGTKLTVL"
  DATA_VALUE: 2.06
